Provide the reported NH3—N (ammonia nitrogen) of each item.
System: rumen fluid
Experiment: In vitro incubation of rumen fluid: digestibility, fermentation characteristics, gas and methane production, VFA
Format: cell-based, Hanwoo cows
Settings: 0.2 mmol/L, 24 h

Query: Suppose we examine the molecule C=CC(N)=O [AA, acrylamide] ; what NH3—N (ammonia nitrogen) value has been reported?
Response: 16.61^A mg/dL

Query: Suppose we examine the molecule NC(=O)CCl [CLA, 2-chloroacetamide] ; what NH3—N (ammonia nitrogen) value has been reported?
Response: 13.90^B mg/dL

Query: Suppose we examine the molecule NC(=O)CO [GA, glycolamide] ; what NH3—N (ammonia nitrogen) value has been reported?
Response: 14.76^AB mg/dL

Query: Suppose we examine the molecule CCC(N)=O [PA, propionamide] ; what NH3—N (ammonia nitrogen) value has been reported?
Response: 16.50^A mg/dL

Query: Suppose we examine the molecule NC(=O)CI [IA, iodoacetamide] ; what NH3—N (ammonia nitrogen) value has been reported?
Response: 13.16^B mg/dL

* * *

System: rumen fluid
Assay: In vitro incubation of rumen fluid: digestibility, fermentation characteristics, gas and methane production, VFA
Type: cell-based, Hanwoo cows
Conditions: 0.2 mmol/L, 24 h; VFA composition
Recorded endpoint: Butyrate

Query: Suppose we examine the compound NC(=O)CO [GA, glycolamide] ; what Butyrate value has been reported?
Response: 14.30^B %

Query: Suppose we examine the compound CCC(N)=O [PA, propionamide] ; what Butyrate value has been reported?
Response: 14.31^B %

Query: Suppose we examine the compound NC(=O)CI [IA, iodoacetamide] ; what Butyrate value has been reported?
Response: 16.51^A %

Query: Suppose we examine the compound C=CC(N)=O [AA, acrylamide] ; what Butyrate value has been reported?
Response: 13.87^B %

Query: Suppose we examine the compound NC(=O)CCl [CLA, 2-chloroacetamide] ; what Butyrate value has been reported?
Response: 16.30^A %

* * *

Test system: rumen microbiome
Test: Alpha-diversity measurements of the rumen microbiome
Format: cell-based, rumen fluid of Hanwoo cows
Conditions: 0.2 mmol/L, 24 h
Provide the reported Observed features of each item.

Query: Suppose we examine the compound NC(=O)CO [GA, glycolamide] ; what Observed features value has been reported?
Response: 435.6^AB

Query: Suppose we examine the compound C=CC(N)=O [AA, acrylamide] ; what Observed features value has been reported?
Response: 284.8^B

Query: Suppose we examine the compound NC(=O)CCl [CLA, 2-chloroacetamide] ; what Observed features value has been reported?
Response: 380.8^AB

Query: Suppose we examine the compound NC(=O)CI [IA, iodoacetamide] ; what Observed features value has been reported?
Response: 520.6^A

Query: Suppose we examine the compound CCC(N)=O [PA, propionamide] ; what Observed features value has been reported?
Response: 405.6^AB

* * *

Provide the reported Total VFA (total volatile fatty acids) of each item.
Test system: rumen fluid
Experiment: In vitro incubation of rumen fluid: digestibility, fermentation characteristics, gas and methane production, VFA
Format: cell-based, Hanwoo cows
Conditions: 0.2 mmol/L, 24 h; concentration

Query: Suppose we examine the compound C=CC(N)=O [AA, acrylamide] ; what Total VFA (total volatile fatty acids) value has been reported?
Response: 70.82^A mM

Query: Suppose we examine the compound NC(=O)CI [IA, iodoacetamide] ; what Total VFA (total volatile fatty acids) value has been reported?
Response: 59.25^B mM

Query: Suppose we examine the compound NC(=O)CO [GA, glycolamide] ; what Total VFA (total volatile fatty acids) value has been reported?
Response: 61.27^AB mM

Query: Suppose we examine the compound NC(=O)CCl [CLA, 2-chloroacetamide] ; what Total VFA (total volatile fatty acids) value has been reported?
Response: 63.14^AB mM

Query: Suppose we examine the compound CCC(N)=O [PA, propionamide] ; what Total VFA (total volatile fatty acids) value has been reported?
Response: 63.20^AB mM

* * *

System: Total methanogen
Experiment: qPCR absolute quantification of methanogens after in vitro rumen incubation
Type: cell-based, rumen fluid of Hanwoo cows
Conditions: 0.2 mmol/L, 24 h
Provide the reported Total methanogen (absolute quantification, qPCR) of each item.

Query: Return Total methanogen (absolute quantification, qPCR) measured with Total methanogen given this molecule: NC(=O)CI [IA, iodoacetamide]
Response: 7.74^B

Query: Return Total methanogen (absolute quantification, qPCR) measured with Total methanogen given this molecule: C=CC(N)=O [AA, acrylamide]
Response: 8.38^A

Query: Return Total methanogen (absolute quantification, qPCR) measured with Total methanogen given this molecule: NC(=O)CO [GA, glycolamide]
Response: 8.33^A

Query: Return Total methanogen (absolute quantification, qPCR) measured with Total methanogen given this molecule: CCC(N)=O [PA, propionamide]
Response: 8.42^A

Query: Return Total methanogen (absolute quantification, qPCR) measured with Total methanogen given this molecule: NC(=O)CCl [CLA, 2-chloroacetamide]
Response: 8.05^AB

* * *

Provide the reported Chao1 of each item.
Tested on: rumen microbiome
Experiment: Alpha-diversity measurements of the rumen microbiome
Type: cell-based, rumen fluid of Hanwoo cows
Conditions: 0.2 mmol/L, 24 h

Query: Suppose we examine the compound C=CC(N)=O [AA, acrylamide] ; what Chao1 value has been reported?
Response: 284.8^B

Query: Suppose we examine the compound NC(=O)CO [GA, glycolamide] ; what Chao1 value has been reported?
Response: 436.4^AB

Query: Suppose we examine the compound NC(=O)CI [IA, iodoacetamide] ; what Chao1 value has been reported?
Response: 525.3^A

Query: Suppose we examine the compound CCC(N)=O [PA, propionamide] ; what Chao1 value has been reported?
Response: 406.2^AB

Query: Suppose we examine the compound NC(=O)CCl [CLA, 2-chloroacetamide] ; what Chao1 value has been reported?
Response: 382.3^AB

* * *

System: rumen fluid
Assay: In vitro incubation of rumen fluid: digestibility, fermentation characteristics, gas and methane production, VFA
Assay type: cell-based, Hanwoo cows
Conditions: 0.2 mmol/L, 24 h; concentration
Provide the reported Butyrate of each item.

Query: Suppose we examine the compound NC(=O)CCl [CLA, 2-chloroacetamide] ; what Butyrate value has been reported?
Response: 10.25^A mM

Query: Suppose we examine the compound NC(=O)CI [IA, iodoacetamide] ; what Butyrate value has been reported?
Response: 9.45^AB mM

Query: Suppose we examine the compound C=CC(N)=O [AA, acrylamide] ; what Butyrate value has been reported?
Response: 9.82^AB mM

Query: Suppose we examine the compound NC(=O)CO [GA, glycolamide] ; what Butyrate value has been reported?
Response: 8.74^B mM

Query: Suppose we examine the compound CCC(N)=O [PA, propionamide] ; what Butyrate value has been reported?
Response: 9.04^AB mM

* * *

Test system: Prevotella ruminicola
Experiment: qPCR absolute quantification of Prevotella ruminicola after in vitro rumen incubation
Type: cell-based
Settings: 0.2 mmol/L, 24 h
Provide the reported Prevotella ruminicola (absolute quantification, qPCR) of each item.

Query: Suppose we examine the molecule NC(=O)CO [GA, glycolamide] ; what Prevotella ruminicola (absolute quantification, qPCR) value has been reported?
Response: 9.42^C

Query: Suppose we examine the molecule C=CC(N)=O [AA, acrylamide] ; what Prevotella ruminicola (absolute quantification, qPCR) value has been reported?
Response: 9.44^C

Query: Suppose we examine the molecule CCC(N)=O [PA, propionamide] ; what Prevotella ruminicola (absolute quantification, qPCR) value has been reported?
Response: 9.45^C

Query: Suppose we examine the molecule NC(=O)CI [IA, iodoacetamide] ; what Prevotella ruminicola (absolute quantification, qPCR) value has been reported?
Response: 9.72^A

Query: Suppose we examine the molecule NC(=O)CCl [CLA, 2-chloroacetamide] ; what Prevotella ruminicola (absolute quantification, qPCR) value has been reported?
Response: 9.58^B

* * *

System: rumen fluid
Assay: In vitro incubation of rumen fluid: digestibility, fermentation characteristics, gas and methane production, VFA
Type: cell-based, Hanwoo cows
Conditions: 0.2 mmol/L, 24 h
Recorded endpoint: A:P ratio (acetate:propionate ratio)

Query: Suppose we examine the compound CCC(N)=O [PA, propionamide] ; what A:P ratio (acetate:propionate ratio) value has been reported?
Response: 2.96^A

Query: Suppose we examine the compound NC(=O)CO [GA, glycolamide] ; what A:P ratio (acetate:propionate ratio) value has been reported?
Response: 2.92^A

Query: Suppose we examine the compound C=CC(N)=O [AA, acrylamide] ; what A:P ratio (acetate:propionate ratio) value has been reported?
Response: 3.03^A

Query: Suppose we examine the compound NC(=O)CI [IA, iodoacetamide] ; what A:P ratio (acetate:propionate ratio) value has been reported?
Response: 1.89^C

Query: Suppose we examine the compound NC(=O)CCl [CLA, 2-chloroacetamide] ; what A:P ratio (acetate:propionate ratio) value has been reported?
Response: 2.34^B

* * *

Tested on: rumen fluid
Experiment: In vitro incubation of rumen fluid: digestibility, fermentation characteristics, gas and methane production, VFA
Format: cell-based, Hanwoo cows
Conditions: 0.2 mmol/L, up to 24 h
Recorded endpoint: CH4 (methane production per gram of degraded dry matter)

Query: Suppose we examine the compound NC(=O)CO [GA, glycolamide] ; what CH4 (methane production per gram of degraded dry matter) value has been reported?
Response: 26.85^B mL/g dDM

Query: Suppose we examine the compound NC(=O)CI [IA, iodoacetamide] ; what CH4 (methane production per gram of degraded dry matter) value has been reported?
Response: 0.60^D mL/g dDM

Query: Suppose we examine the compound CCC(N)=O [PA, propionamide] ; what CH4 (methane production per gram of degraded dry matter) value has been reported?
Response: 28.32^AB mL/g dDM

Query: Suppose we examine the compound C=CC(N)=O [AA, acrylamide] ; what CH4 (methane production per gram of degraded dry matter) value has been reported?
Response: 29.06^A mL/g dDM

Query: Suppose we examine the compound NC(=O)CCl [CLA, 2-chloroacetamide] ; what CH4 (methane production per gram of degraded dry matter) value has been reported?
Response: 10.71^C mL/g dDM
